TARGET DESC: 5-hydroxytryptamine receptor 2C (Homo sapiens, UniProt P28335)
ASSAY REMARKS: Agonist activity at 5HT2C receptor

SUBSTANCE SMILES: C[C@H]1CC[C@@H](Oc2c(F)cc(CNC(=O)[C@@H]3CCCN3)cc2F)CC1
EC50 (nM): 44

SUBSTANCE SMILES: COc1cc(OCC2CCCCC2)c(F)cc1CNC(=O)[C@@H]1CCCN1
EC50 (nM): 4.97

SUBSTANCE SMILES: O=C(NCc1ccc(OCc2ccccc2)cc1)[C@@H]1CCCN1
EC50 (nM): 73

SUBSTANCE SMILES: O=C(NCc1ccc(Oc2cccc(F)c2)cc1)[C@@H]1CCCN1
EC50 (nM): 38

SUBSTANCE SMILES: COc1cc(OC2CCC(C)(C)CC2)c(F)cc1CNC(=O)[C@@H]1CCCN1
EC50 (nM): 2.3

----------
Protein target, amino acids: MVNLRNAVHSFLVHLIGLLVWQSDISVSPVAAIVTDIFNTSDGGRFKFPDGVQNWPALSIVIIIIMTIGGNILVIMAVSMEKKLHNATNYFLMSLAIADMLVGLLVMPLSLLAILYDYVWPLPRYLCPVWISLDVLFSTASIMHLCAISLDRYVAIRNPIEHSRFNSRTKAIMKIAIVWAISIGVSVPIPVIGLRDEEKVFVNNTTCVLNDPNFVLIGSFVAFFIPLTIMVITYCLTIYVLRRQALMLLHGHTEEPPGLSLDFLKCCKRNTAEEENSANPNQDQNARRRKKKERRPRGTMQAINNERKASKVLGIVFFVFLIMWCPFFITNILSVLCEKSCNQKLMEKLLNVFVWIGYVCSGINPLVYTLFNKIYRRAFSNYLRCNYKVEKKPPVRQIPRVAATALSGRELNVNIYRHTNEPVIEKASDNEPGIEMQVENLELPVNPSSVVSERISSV
MEASURE NAME: log10 Ki (log10 of the value in nM)

MOLECULE: O=C(NCc1ccc(OCc2ccccc2)cc1)[C@@H]1CCCN1
log10 Ki: 1.30
--
MOLECULE: O=C(NCc1ccc(C2CCCCC2)cc1)[C@@H]1CCCN1
log10 Ki: 0.64
--
MOLECULE: O=C(NCc1ccc(-c2cc(Cl)cc(Cl)c2)cc1)[C@@H]1CCCN1
log10 Ki: 0.90
--
MOLECULE: O=C(NCc1ccc(-c2ccc(Cl)cc2)cc1F)N1CCNCC1
log10 Ki: 0.60
--
MOLECULE: NCc1cccc(C(=O)NCc2ccc(OC(F)(F)F)cc2)c1
log10 Ki: 2.77
--
MOLECULE: COc1cc(OCC2CCCCC2)c(F)cc1CNC(=O)[C@@H]1CCCN1
log10 Ki: 0.23
--
MOLECULE: C[C@H]1CC[C@@H](Oc2c(F)cc(CNC(=O)[C@@H]3CCCN3)cc2F)CC1
log10 Ki: 1.40
--
MOLECULE: O=C(NCc1ccc(Oc2cccc(F)c2)cc1)[C@@H]1CCCN1
log10 Ki: 1.36
--
MOLECULE: O=C(NCc1ccc(OC(F)(F)F)cc1)C1CCNC1 (stereo not given)
log10 Ki: 2.81
--
MOLECULE: O=C(NCc1ccc(OC(F)(F)F)cc1)[C@@H]1CCCN1
log10 Ki: 2.51

----------
TARGET DESC: 5-hydroxytryptamine receptor 2B (Homo sapiens)
Sequence (P41595 whole entry): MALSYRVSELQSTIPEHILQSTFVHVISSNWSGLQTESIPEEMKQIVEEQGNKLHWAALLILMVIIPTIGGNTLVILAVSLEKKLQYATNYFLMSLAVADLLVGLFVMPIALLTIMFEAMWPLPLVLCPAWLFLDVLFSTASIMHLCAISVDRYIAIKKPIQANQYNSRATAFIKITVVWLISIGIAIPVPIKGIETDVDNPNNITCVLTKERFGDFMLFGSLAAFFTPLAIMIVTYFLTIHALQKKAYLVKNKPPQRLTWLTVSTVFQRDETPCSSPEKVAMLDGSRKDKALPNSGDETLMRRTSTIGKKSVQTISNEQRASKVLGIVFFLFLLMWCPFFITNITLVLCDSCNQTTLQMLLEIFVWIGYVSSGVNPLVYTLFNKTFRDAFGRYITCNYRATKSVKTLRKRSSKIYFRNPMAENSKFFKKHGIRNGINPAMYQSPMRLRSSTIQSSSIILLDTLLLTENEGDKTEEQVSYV
ASSAY REMARKS: Agonist activity at 5HT2B receptor

SUBSTANCE SMILES: COc1cc(OCC2CCCCC2)c(F)cc1CNC(=O)[C@@H]1CCCN1
EC50: 4.03 µM
//
SUBSTANCE SMILES: COc1cc(OC2CCC(C)(C)CC2)c(F)cc1CNC(=O)[C@@H]1CCCN1
EC50: > 10 µM
//
SUBSTANCE SMILES: CC1(C)CCC(Oc2cc(F)c(CNC(=O)[C@@H]3CCCN3)cc2F)CC1
EC50: > 10 µM
//
SUBSTANCE SMILES: C[C@H]1CC[C@@H](Oc2c(F)cc(CNC(=O)[C@@H]3CCCN3)cc2F)CC1
EC50: > 10 µM

----------
Reported EC50 is given for each of the following compounds.
TARGET DESC: 5-hydroxytryptamine receptor 2C (Homo sapiens, UniProt P28335)
Sequence (P28335 whole entry): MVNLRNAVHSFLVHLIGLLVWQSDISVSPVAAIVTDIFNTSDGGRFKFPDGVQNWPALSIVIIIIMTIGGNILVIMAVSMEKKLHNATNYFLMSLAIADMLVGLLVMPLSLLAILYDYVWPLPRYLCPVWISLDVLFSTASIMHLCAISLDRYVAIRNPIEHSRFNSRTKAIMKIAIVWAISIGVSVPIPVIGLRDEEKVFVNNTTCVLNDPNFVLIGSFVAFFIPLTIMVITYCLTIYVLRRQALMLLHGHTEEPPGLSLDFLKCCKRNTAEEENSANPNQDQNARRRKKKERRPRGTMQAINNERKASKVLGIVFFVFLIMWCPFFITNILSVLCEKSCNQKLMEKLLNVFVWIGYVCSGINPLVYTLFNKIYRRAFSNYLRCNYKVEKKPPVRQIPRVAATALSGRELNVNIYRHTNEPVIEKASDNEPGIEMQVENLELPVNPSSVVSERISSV
ASSAY REMARKS: Agonist activity at 5HT2C receptor

SUBSTANCE SMILES: O=C(NCc1ccc(-c2cc(Cl)cc(Cl)c2)cc1)[C@@H]1CCCN1
UNITS SYMBOL: nM
EC50: 183

SUBSTANCE SMILES: CC1(C)CCC(Oc2cc(F)c(CNC(=O)[C@@H]3CCCN3)cc2F)CC1
UNITS SYMBOL: nM
EC50: 1

SUBSTANCE SMILES: O=C(NCc1ccc(C2CCCCC2)cc1)[C@@H]1CCCN1
UNITS SYMBOL: nM
EC50: 88

----------
ASSAY REMARKS: Half life in human hepatocytes
Assay type: ADME, cell-based, Liver, Hepatocyte

SUBSTANCE SMILES: COc1cc(OC2CCC(C)(C)CC2)c(F)cc1CNC(=O)[C@@H]1CCCN1
half-life / h: 7.33

----------
TARGET DESC: UniProt:P28223
ASSAY REMARKS: Binding affinity to 5HT2A receptor
CONDITION CONTEXT: read-out: Ki
Reported Ki is given for each of the following compounds.

SUBSTANCE SMILES: COc1cc(OC2CCC(C)(C)CC2)c(F)cc1CNC(=O)[C@@H]1CCCN1
Ki, nM: 12.8
//
SUBSTANCE SMILES: CC1(C)CCC(Oc2cc(F)c(CNC(=O)[C@@H]3CCCN3)cc2F)CC1
Ki, nM: 13.7

----------
ASSAY REMARKS: Bioavailability in dog
Format: ADME, organism-based, Canis lupus familiaris
CONDITION CONTEXT: in vivo
MEASURE NAME: bioavailability (%)

SUBSTANCE SMILES: COc1cc(OC2CCC(C)(C)CC2)c(F)cc1CNC(=O)[C@@H]1CCCN1
ENDPOINT VALUE: 5.5

----------
TARGET DESC: 5-hydroxytryptamine receptor 2A (Homo sapiens, UniProt P28223)
Sequence (P28223 whole entry): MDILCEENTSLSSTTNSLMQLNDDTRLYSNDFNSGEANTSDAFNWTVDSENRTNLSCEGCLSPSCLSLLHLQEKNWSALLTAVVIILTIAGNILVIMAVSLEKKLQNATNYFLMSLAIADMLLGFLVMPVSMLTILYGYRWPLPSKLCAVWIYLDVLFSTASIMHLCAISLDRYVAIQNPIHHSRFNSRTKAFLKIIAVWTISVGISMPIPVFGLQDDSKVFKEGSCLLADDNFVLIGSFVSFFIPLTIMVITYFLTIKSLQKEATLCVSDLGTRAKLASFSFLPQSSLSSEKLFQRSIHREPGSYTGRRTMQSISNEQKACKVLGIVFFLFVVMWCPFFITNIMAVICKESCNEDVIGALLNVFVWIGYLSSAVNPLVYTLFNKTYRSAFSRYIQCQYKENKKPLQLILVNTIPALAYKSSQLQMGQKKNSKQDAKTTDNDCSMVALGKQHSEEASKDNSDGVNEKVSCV
ASSAY REMARKS: Agonist activity at 5HT2A receptor
Reported EC50 is given for each of the following compounds.

SUBSTANCE SMILES: COc1cc(OC2CCC(C)(C)CC2)c(F)cc1CNC(=O)[C@@H]1CCCN1
TARGET DESC: 5-hydroxytryptamine receptor 2A (Homo sapiens, UniProt P28223)
EC50: 440 nM
--
SUBSTANCE SMILES: C[C@H]1CC[C@@H](Oc2c(F)cc(CNC(=O)[C@@H]3CCCN3)cc2F)CC1
TARGET DESC: 5-hydroxytryptamine receptor 2A (Homo sapiens, UniProt P28223)
EC50: 153 nM
--
SUBSTANCE SMILES: CC1(C)CCC(Oc2cc(F)c(CNC(=O)[C@@H]3CCCN3)cc2F)CC1
TARGET DESC: 5-hydroxytryptamine receptor 2A (Homo sapiens, UniProt P28223)
EC50: 130 nM
--
SUBSTANCE SMILES: COc1cc(OCC2CCCCC2)c(F)cc1CNC(=O)[C@@H]1CCCN1
TARGET DESC: 5-hydroxytryptamine receptor 2A (Homo sapiens, UniProt P28223)
EC50: 500 nM

----------
TARGET DESC: 5-hydroxytryptamine receptor 2C (Homo sapiens)
Sequence (whole entry): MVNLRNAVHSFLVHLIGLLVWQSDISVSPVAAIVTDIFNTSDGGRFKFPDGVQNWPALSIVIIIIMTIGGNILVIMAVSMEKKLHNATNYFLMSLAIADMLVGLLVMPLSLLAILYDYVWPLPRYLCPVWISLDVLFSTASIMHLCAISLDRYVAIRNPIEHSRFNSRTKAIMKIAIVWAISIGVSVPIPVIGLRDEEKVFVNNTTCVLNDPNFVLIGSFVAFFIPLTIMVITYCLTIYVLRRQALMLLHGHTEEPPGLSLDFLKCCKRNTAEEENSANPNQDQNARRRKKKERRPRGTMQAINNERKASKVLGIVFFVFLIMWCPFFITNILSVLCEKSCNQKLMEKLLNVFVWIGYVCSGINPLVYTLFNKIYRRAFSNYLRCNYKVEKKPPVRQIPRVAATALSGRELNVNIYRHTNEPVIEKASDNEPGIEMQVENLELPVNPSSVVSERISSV
ASSAY REMARKS: Agonist activity at 5HT2C receptor relative to control
Type: functional
Design: concentration or dose not given beside the values
Response key: t means Activity >= 50%; f means Activity < 50%.

SUBSTANCE SMILES: O=C(NCc1ccc(-c2cc(Cl)cc(Cl)c2)cc1)[C@@H]1CCCN1
GROUP LABEL: t
--
SUBSTANCE SMILES: O=C(NCc1ccc(OCc2ccccc2)cc1)[C@@H]1CCCN1
GROUP LABEL: f
--
SUBSTANCE SMILES: O=C(NCc1ccc(Oc2cccc(F)c2)cc1)[C@@H]1CCCN1
GROUP LABEL: f
--
SUBSTANCE SMILES: COc1cc(OC2CCC(C)(C)CC2)c(F)cc1CNC(=O)[C@@H]1CCCN1
GROUP LABEL: t
--
SUBSTANCE SMILES: CC1(C)CCC(Oc2cc(F)c(CNC(=O)[C@@H]3CCCN3)cc2F)CC1
GROUP LABEL: t
--
SUBSTANCE SMILES: O=C(NCc1ccc(C2CCCCC2)cc1)[C@@H]1CCCN1
GROUP LABEL: t
--
SUBSTANCE SMILES: COc1cc(OCC2CCCCC2)c(F)cc1CNC(=O)[C@@H]1CCCN1
GROUP LABEL: t
--
SUBSTANCE SMILES: C[C@H]1CC[C@@H](Oc2c(F)cc(CNC(=O)[C@@H]3CCCN3)cc2F)CC1
GROUP LABEL: f

The measurements presented in this section are drawn from ChEMBL document CHEMBL1156305.
